# z-score listing for each entry below
ASSAY DETAILS: CREB reporter modulators under forskolin, primary screen, cell-based, PC12, CRE-LacZ reporter, forskolin-stimulated (AID 1146);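 also: PC12 cells with 6xCRE LacZ reporter stimulated by forskolin 10 µM; beta-galactosidase reporter signal reflecting CREB driven transcription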
CONDITION: luminescence, 4.5 h, higher = more signal, called active from +8 up or from −8 down
Please respond with just the number, no unit label.

Worked examples follow.
Tell me the measured z-score of COc1cccc([C@H](O)Cn2cc(-c3ccc(CON=C(C)C)cc3)nn2)c1 , please.
-0.222

Next record, please: CCN1C(=O)[C@H]2[C@H]3[C@H](O)[C@H](O)CC(=NNC(=O)OCc4ccccc4)[C@@H]3CC[C@H]2C1=O
-0.506

---
Tell me the measured z-score of COC(=O)[C@H](C)NC(=O)CCC1CC(OC(=O)NCc2cccc3ccccc23)CC2(CCCC(COC(=O)NCc3cccc(C(F)(F)F)c3)O2)O1 (stereo not given in full) , please.
-0.213

Next record, please: COC(=O)C(C(=O)OC)C1CCCC(=O)C1 (stereo not given)
-0.0388

Next record, please: CC(CCN1CCCc2nc(C)c(C)cc21)=NOC[C@@H](C)[C@H](OCc1ccccc1)C(C)C
-0.186

----------
# composite z-score listing for each entry below
TEST SYSTEM: Torsin-1A (Homo sapiens) (UniProt O14656)
Sequence (O14656 whole entry, looked up): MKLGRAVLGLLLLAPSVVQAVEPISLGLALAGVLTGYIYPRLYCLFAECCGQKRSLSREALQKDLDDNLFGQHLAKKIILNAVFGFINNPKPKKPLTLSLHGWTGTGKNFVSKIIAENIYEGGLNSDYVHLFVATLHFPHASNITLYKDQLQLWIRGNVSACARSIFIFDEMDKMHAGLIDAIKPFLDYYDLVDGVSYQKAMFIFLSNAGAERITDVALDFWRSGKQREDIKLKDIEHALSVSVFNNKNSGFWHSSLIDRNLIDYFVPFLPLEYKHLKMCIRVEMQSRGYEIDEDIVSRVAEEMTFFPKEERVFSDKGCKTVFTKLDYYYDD
ASSAY DETAILS: torsin A binders from cell lysate, primary screen, small-molecule microarray, wild-type, 635/667 nm (AID 1149)
CONDITION: COS7 hTOR1A-WT lysate, 635 nm fluorescence, higher = more signal
Please respond with just the number, no unit label.

Tell me reported composite z-score for CCN1C(=O)[C@H]2[C@H]3[C@H](O)[C@H](O)CC(=NOCC[C@@H]4C=C[C@H](OC(C)=O)[C@@H](COC(C)=O)O4)[C@@H]3CC[C@H]2C1=O , tested with Torsin-1A (Homo sapiens) (UniProt O14656).
0.014

Next record, please: O=C1C=C[C@@H](O)[C@@H]2[C@@H]3C(=O)N(Cc4ccccc4)C(=O)[C@@H]3CC[C@@H]12
0.418

Next record, please: C=CC[C@@H]1C=C[C@H](Oc2ccc(C)cc2)[C@@H](COC(=O)NCc2cccc3ccccc23)O1
-0.0815

Next record, please: CCN1C(=O)[C@H]2[C@H]3[C@H](O)[C@H](O)CC(=NOCC(C)C)[C@H]3CC[C@H]2C1=O
-0.284

Next record, please: CO[C@H]1COC(=O)CCC[C@H](C)[C@@H](OC)COC(=O)CC=C[C@@H]1C
0.0956

Next record, please: O=C1C[C@@H](O)[C@@H](O)[C@@H]2[C@@H]3C(=O)N(Cc4ccccc4)C(=O)[C@@H]3CC[C@H]12
0.176

---
Tell me reported composite z-score for COC(=O)[C@H](C)NC(=O)CC=C[C@@H](C)[C@@H]1C=C[C@H](O)[C@@H](CO)O1 , tested with Torsin-1A (Homo sapiens) (UniProt O14656).
0.945

Next record, please: CCc1cc2c(nc1CC)CCN(CCC(C)=NOC[C@@H](C)[C@H](OCc1ccccc1)C(C)C)C2
-0.94

----------
Tested on: Sonic hedgehog protein (Shh)
ASSAY DETAILS: small-molecule binders of Shh protein, primary screen, biochemical, small-molecule microarray, 635/667 nm fluorescence (AID 1151);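 also: Shh protein binding to compounds spotted on small-molecule microarray slides; score combines spot fluorescence intensity with signal-to-noise across triplicate slides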
CONDITION: small-molecule microarray binding, 635 nm fluorescence; higher = more signal
OBSERVED PROPERTY: composite z-score
Please respond with just the number, no unit label.

Tell me the measured composite z-score of CC(C)CON=C1C[C@@H](O)[C@@H](O)[C@@H]2[C@@H]3C(=O)N([C@@H](C)c4ccccc4)C(=O)[C@@H]3CC[C@@H]12 , please.
-0.104

Next record, please: CCOC(=O)[C@H](Cc1ccccc1)NC(=O)CCC1CC(OC(=O)NCc2ccc3c(c2)OCO3)CC2(CCCC(COC(=O)NCCCN3CCCC3=O)O2)O1 (stereo partly drawn)
1.53

Next record, please: CC(C)=CCCC(C)=CCON=C1C[C@@H](O)[C@@H](O)[C@@H]2[C@@H]3C(=O)N(c4cccc(Oc5ccccc5)c4)C(=O)[C@@H]3CC[C@H]12
1.51

Next record, please: COC(=O)[C@H](Cc1ccccc1)NC(=O)[C@@H](C)CO
0.643

Next record, please: CCN1C(=O)[C@H]2[C@H]3[C@H](O)[C@H](O)CC(=NNC(=O)OCc4ccccc4)[C@@H]3CC[C@H]2C1=O
0.475

Next record, please: CO[C@@H]1C=CCC(=O)N[C@@H](C)C(=O)OC[C@@H](OC)[C@H](C)C=CCC(=O)OC[C@H]1C
2.06

Next record, please: CCc1cc2c(nc1CC)CCN(CCC(C)=NOCC[C@@H]1C=C[C@H](OC(C)=O)[C@@H](COC(C)=O)O1)C2
1.32

Attention now shifts to the item below.
Tell me the measured composite z-score of Cc1cc2c(nc1C)CCCCN2CC(O)CN1CCCc2nc(-c3ccc(Br)cc3)ccc21 (stereo not drawn) , please.
1.1

----------
TEST SYSTEM: Pro-neuregulin-1, membrane-bound isoform (Homo sapiens) (UniProt Q02297)
Sequence (Q02297 whole entry, looked up, canonical isoform): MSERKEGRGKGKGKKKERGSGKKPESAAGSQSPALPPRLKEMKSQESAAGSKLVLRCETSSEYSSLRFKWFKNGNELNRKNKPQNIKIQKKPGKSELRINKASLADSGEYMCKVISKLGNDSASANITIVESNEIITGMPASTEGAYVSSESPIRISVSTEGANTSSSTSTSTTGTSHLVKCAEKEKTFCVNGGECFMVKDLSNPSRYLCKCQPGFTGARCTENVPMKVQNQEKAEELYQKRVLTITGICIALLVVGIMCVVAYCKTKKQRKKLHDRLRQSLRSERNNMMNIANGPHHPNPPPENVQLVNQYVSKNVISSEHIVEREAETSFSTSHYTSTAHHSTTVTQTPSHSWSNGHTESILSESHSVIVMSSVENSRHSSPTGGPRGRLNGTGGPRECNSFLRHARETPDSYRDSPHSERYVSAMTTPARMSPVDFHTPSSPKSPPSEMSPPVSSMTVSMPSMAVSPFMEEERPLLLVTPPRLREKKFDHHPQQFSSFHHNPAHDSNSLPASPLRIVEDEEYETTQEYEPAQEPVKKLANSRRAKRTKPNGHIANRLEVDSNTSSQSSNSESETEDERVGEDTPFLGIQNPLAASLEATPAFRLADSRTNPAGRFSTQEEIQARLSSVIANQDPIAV
ASSAY DETAILS: NRG1 binders on small-molecule microarrays, primary screen, psychiatric disease protein project, biochemical, small-molecule microarray, fluorescence 635/667 (AID 1075);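 also: score combines 667 nm spot fluorescence with signal to noise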
CONDITION: NRG1 binding, 635 nm fluorescence, higher = more signal
Label false if composite z-score falls below 0.3; label true in every other case.

Record CCN1C(=O)[C@H]2[C@@H]3C(=CC[C@H]2C1=O)C(=O)[C@H]1O[C@H]1[C@H]3O ; criterion: composite z-score no lower than 0.3. Met?
false

Next record, please: CCN1C(=O)[C@H]2[C@H]3[C@H](O)[C@H](O)CC(=NO[C@@H]4O[C@H](CO)[C@@H](O)[C@H](O)[C@H]4O)[C@H]3CC[C@H]2C1=O
false

----------
# composite z-score listing for each entry below
TEST SYSTEM: Calmodulin-1 (Homo sapiens) (UniProt P0DP23)
ASSAY DETAILS: CALM1 binders on microarrays, EGTA buffer, profiling panel, biochemical, small-molecule microarray, Cy5-labelled CALM1 (AID 1111);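 also: labelled calmodulin applied in Tris saline Tween buffer holding calcium plus EGTA and DTT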
CONDITION: Cy5-CALM1 binding fluorescence, higher = more signal
Please respond with just the number, no unit label.

Tell me the measured composite z-score of O=C1C[C@H](c2ccccc2)[C@H](c2ccc(Br)cc2)O1 , please.
-0.649

---
Tell me the measured composite z-score of CCOC(=O)[C@H](Cc1ccccc1)NC(=O)CCC1CC(OC(=O)NCc2cccc3ccccc23)CC2(CCCC(COC(=O)NCCOc3ccccc3)O2)O1 (stereo partly drawn) , please.
0.653

----------
ASSAY DETAILS: small-molecule microarray binders of probe aShh, primary screen, biochemical, biotinylated probe, 635/667 nm fluorescence (AID 1114);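 also: probe is biotin-labelled aShh protein from a stem cell growth factor screen; measures binding of labelled protein to compounds printed on the slide; score merges feature fluorescence at 667 nm with signal-to-noise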
CONDITION: higher = more signal
# composite z-score listing for each entry below
Please respond with just the number, no unit label.

Worked examples follow.
Tell me the measured composite z-score of CC(C)=CCCC(C)=CCON=C1C[C@@H](O)[C@@H](O)[C@@H]2[C@@H]3C(=O)N([C@@H](C)c4ccccc4)C(=O)[C@@H]3CC[C@@H]12 , please.
-0.289

Next record, please: CC(C)[C@@H](OCc1ccccc1)[C@H](C)C=NOC[C@@H](O)[C@H]1O[C@@H]2OC(C)(C)O[C@@H]2[C@H]1O
-0.634

Next record, please: O=C1C=C[C@@H](O)[C@@H]2[C@@H]3C(=O)N(C4CCCCC4)C(=O)[C@@H]3CC[C@@H]12
-0.0793

Next record, please: COC(=O)CC=C[C@@H](C)[C@@H](C=NOC[C@@H](O)[C@H]1O[C@@H]2OC(C)(C)O[C@@H]2[C@H]1O)OC
-0.0035

Next record, please: COc1ccc(COC(=O)NN=C2C[C@@H](O)[C@@H](O)[C@@H]3[C@@H]4C(=O)N(c5cccc(Oc6ccccc6)c5)C(=O)[C@@H]4CC[C@H]23)cc1
-0.2

Next record, please: CO[C@H]1COC(=O)[C@H](C)COC(=O)[C@@H](OCc2ccccc2)C=C[C@@H]1C
-0.0769

Next record, please: CO[C@H]1COC(=O)CCC[C@H](C)[C@H](OC)COC(=O)CC=C[C@@H]1C
-0.138

---
Tell me the measured composite z-score of C[C@H]1CC[C@@H](C(=O)O)N[C@@H]1c1ccc(C#Cc2ccccc2)cc1 , please.
-0.154

----------
Test system: Lefty1
ASSAY DETAILS: Lefty1 binders on small-molecule microarrays, primary screen, biochemical, small-molecule microarray, 635/667 nm fluorescence (AID 1139)
CONDITION: small-molecule microarray binding, fluorescence 635/667; higher = more signal
# composite z-score listing for each entry below

Worked examples follow.
Tell me the measured composite z-score of C[C@@H](c1ccccc1)N1C(=O)[C@H]2[C@H]3[C@H](O)[C@H](O)CC(=NNC(=O)OCc4ccccc4)[C@@H]3CC[C@H]2C1=O , please.
1.39

Next record, please: CC(=O)OC[C@H]1O[C@H](CC=NOC(C)CN2CCCCc3nc(C)c(C)cc32)C=C[C@@H]1OC(C)=O (some centres not stated)
1.55

Next record, please: CCOC(=O)CCN1C(=O)[C@H]2[C@H]3[C@H](O)[C@H](O)CC(=O)[C@@H]3CC[C@H]2C1=O
1.38

Next record, please: CCOC(=O)[C@H](CC(C)C)NC(=O)CCC1CC(OC(=O)NCc2ccc3c(c2)OCO3)CC2(CCCC(COC(=O)NCCOc3ccccc3)O2)O1 (some centres not stated)
1.61

Next record, please: CC=CC1=C(CO)[C@H](O)[C@H]2O[C@H]2[C@@H]1O
0.911

---
Tell me the measured composite z-score of CCOC(=O)[C@H](Cc1ccccc1)NC(=O)CCC1CC(OC(=O)NCc2cccc3ccccc23)CC2(CCCC(COC(=O)NCCOc3ccccc3)O2)O1 (some centres not stated) , please.
0.573

Next record, please: CC(=O)OC[C@H]1O[C@H](CC=NO[C@@H](C)c2cc(-c3c(C)cc(C)cc3C)no2)C=C[C@@H]1OC(C)=O
-0.0273
